Test system: Fer (mouse);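 note: 11-residue human phosphosite peptides and single-mutation variants displayed on the E. coli surface, counted by deep sequencing, each peptide's frequency after selection divided by its frequency in the unselected input library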;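 note: frequency after pTyr selection over input frequency; kinase dosed for 20-30% of maximal phosphorylation in three min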
Assay: phosphorylation enrichment, bacterial display (enrichment ratio); higher = better substrate or ligand; peptides without Tyr show the background
Classification field: enter Yes for phosphorylation enrichment values not below 0.5, No for values below it.

Q) API: above_or_equal(metric=phosphorylation enrichment, cutoff=0.5) for item KEDPEYKKKFR [FAM161A_Y278_E273K]
A) No

Q) API: above_or_equal(metric=phosphorylation enrichment, cutoff=0.5) for item CGQDPCIRELG [UROS_Y19_Y19C]
A) No

Q) API: above_or_equal(metric=phosphorylation enrichment, cutoff=0.5) for item PQAVRYIFTID [DCX_Y103_G100A_YF]
A) Yes

Q) API: above_or_equal(metric=phosphorylation enrichment, cutoff=0.5) for item RVILRYVNPGT [LAMA3_Y791]
A) Yes

Q) API: above_or_equal(metric=phosphorylation enrichment, cutoff=0.5) for item DNPAKYFILES [DPP10_Y512]
A) No

Q) API: above_or_equal(metric=phosphorylation enrichment, cutoff=0.5) for item ECKFLYSRKEG [PTPN11_Y263_L261F]
A) No

Q) API: above_or_equal(metric=phosphorylation enrichment, cutoff=0.5) for item SVQVDYMKTIL [GLYATL2_Y127]
A) Yes

Q) API: above_or_equal(metric=phosphorylation enrichment, cutoff=0.5) for item NAMRRYIEEFQ [MNS1_Y244]
A) No

Q) API: above_or_equal(metric=phosphorylation enrichment, cutoff=0.5) for item SHSMRYFDTAV [HLA-C_Y31]
A) No

Q) API: above_or_equal(metric=phosphorylation enrichment, cutoff=0.5) for item KVALVYGQMNE [ATP5F1B_Y269]
A) Yes

Q) API: above_or_equal(metric=phosphorylation enrichment, cutoff=0.5) for item SLESAYPEGSQ [TTF1_Y357]
A) No

Q) API: above_or_equal(metric=phosphorylation enrichment, cutoff=0.5) for item TKDTIYKQPMF [GBA_Y451_F450I]
A) No

Q) API: above_or_equal(metric=phosphorylation enrichment, cutoff=0.5) for item FLRKEYGGVNV [CBR3_Y81_L84V]
A) No

Q) API: above_or_equal(metric=phosphorylation enrichment, cutoff=0.5) for item AGQERYRAITS [RAB11B_Y73]
A) No

Q) API: above_or_equal(metric=phosphorylation enrichment, cutoff=0.5) for item CTTIHYNYMCH [TP53_Y234_N239H]
A) Yes

Q) API: above_or_equal(metric=phosphorylation enrichment, cutoff=0.5) for item PLRPDYQEPSR [DDR2_Y481]
A) No

Q) API: above_or_equal(metric=phosphorylation enrichment, cutoff=0.5) for item ALDHKYHGGGG [HBB_Y146_A143D]
A) No

Q) API: above_or_equal(metric=phosphorylation enrichment, cutoff=0.5) for item PDGVEYLKNDP [GRIN3A_Y831]
A) Yes

Q) API: above_or_equal(metric=phosphorylation enrichment, cutoff=0.5) for item DIMDLYNQPEP [IL36A_Y96]
A) Yes

Q) API: above_or_equal(metric=phosphorylation enrichment, cutoff=0.5) for item LEKISYVFMKR [SSX7_Y48_YF]
A) Yes

Q) API: above_or_equal(metric=phosphorylation enrichment, cutoff=0.5) for item KDGNGYISAAE [CALM1_Y100]
A) No

Q) API: above_or_equal(metric=phosphorylation enrichment, cutoff=0.5) for item FADGVYQALEE [DUOX2_Y70_YF]
A) Yes

Q) API: above_or_equal(metric=phosphorylation enrichment, cutoff=0.5) for item EFQKKYSDADI [CKAP5_Y1860_K1857Q_YF]
A) No

Q) API: above_or_equal(metric=phosphorylation enrichment, cutoff=0.5) for item TSNQEYLFLSM [FGFR1_Y766_D768Y_YF]
A) Yes

Q) API: above_or_equal(metric=phosphorylation enrichment, cutoff=0.5) for item SVTSTYSPALN [TP53_Y126_C124S]
A) No

Q) API: above_or_equal(metric=phosphorylation enrichment, cutoff=0.5) for item QNTGDDYDLYG [PTPN11_Y62_Y62D]
A) Yes

Q) API: above_or_equal(metric=phosphorylation enrichment, cutoff=0.5) for item VDHFGYTKDDK [APOB_Y740]
A) No

Q) API: above_or_equal(metric=phosphorylation enrichment, cutoff=0.5) for item EKLQKYYRKNP [EHHADH_Y682_Q685K]
A) No

Q) API: above_or_equal(metric=phosphorylation enrichment, cutoff=0.5) for item CLAQRYLIWEC [SCN5A_Y694_R689C]
A) Yes

Q) API: above_or_equal(metric=phosphorylation enrichment, cutoff=0.5) for item FTNRSYDLDFD [MYC_Y12_N11S_YF]
A) No

Q) API: above_or_equal(metric=phosphorylation enrichment, cutoff=0.5) for item YSGDYYRIQGR [DDR2_Y741]
A) No

Q) API: above_or_equal(metric=phosphorylation enrichment, cutoff=0.5) for item RREWFYEVIIA [BACE1_Y260_V265A_YF]
A) Yes
